Measured values drawn from paper PMC7582776 for this set.

- TARGET OF ASSAY: CYP2C9 (Homo sapiens, UniProt P11712)
- Sequence (P11712 whole entry): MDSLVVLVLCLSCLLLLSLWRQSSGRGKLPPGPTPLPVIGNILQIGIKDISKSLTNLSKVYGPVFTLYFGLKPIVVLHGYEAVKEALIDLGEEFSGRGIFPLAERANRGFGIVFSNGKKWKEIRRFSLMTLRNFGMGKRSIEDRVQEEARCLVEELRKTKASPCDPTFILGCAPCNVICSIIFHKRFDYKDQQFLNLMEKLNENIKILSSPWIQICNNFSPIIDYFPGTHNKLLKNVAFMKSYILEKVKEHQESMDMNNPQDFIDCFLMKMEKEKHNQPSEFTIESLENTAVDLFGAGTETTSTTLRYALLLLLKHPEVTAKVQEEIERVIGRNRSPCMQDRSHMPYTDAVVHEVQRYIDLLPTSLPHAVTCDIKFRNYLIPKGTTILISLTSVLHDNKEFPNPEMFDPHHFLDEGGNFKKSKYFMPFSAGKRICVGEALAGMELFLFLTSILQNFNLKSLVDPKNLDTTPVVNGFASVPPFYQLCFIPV
QUANTITY KIND: pIC50
Scale for pIC50: -log10 of concentration given in mol/L; no unit attached.

Query :: Please indicate recorded pIC50 of CC(C)[C@H](NC(=O)c1nn(Cc2ccc(F)cc2)c2ccccc12)C(N)=O [AB-FUBINACA] measured with CYP2C9 (Homo sapiens, UniProt P11712).
Result :: 4.87

====

- TARGET OF ASSAY: CYP2C19 (Homo sapiens)
QUANTITY KIND: Ki

Query :: Send back CYP2C19 (Homo sapiens) Ki of CC(C)[C@H](NC(=O)c1nn(Cc2ccc(F)cc2)c2ccccc12)C(N)=O only.
Result :: 6.3 µM

====

- TARGET OF ASSAY: CYP2C8 (Homo sapiens, UniProt P10632)
- Sequence (P10632 whole entry): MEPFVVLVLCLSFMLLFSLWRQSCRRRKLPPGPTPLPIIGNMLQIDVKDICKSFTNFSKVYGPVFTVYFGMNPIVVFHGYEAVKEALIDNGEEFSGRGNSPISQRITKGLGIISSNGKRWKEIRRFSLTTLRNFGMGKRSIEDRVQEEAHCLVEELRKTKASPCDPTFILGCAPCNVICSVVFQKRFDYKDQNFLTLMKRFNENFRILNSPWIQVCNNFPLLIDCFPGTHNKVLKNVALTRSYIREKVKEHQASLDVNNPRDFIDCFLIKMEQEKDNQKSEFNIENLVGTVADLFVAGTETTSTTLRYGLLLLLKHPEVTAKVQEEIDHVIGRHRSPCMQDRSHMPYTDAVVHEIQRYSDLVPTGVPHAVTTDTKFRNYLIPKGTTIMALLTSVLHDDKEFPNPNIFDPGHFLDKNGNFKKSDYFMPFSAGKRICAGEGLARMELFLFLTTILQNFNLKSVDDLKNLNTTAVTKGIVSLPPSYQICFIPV
QUANTITY KIND: IC50 (µM)
Field: numeric (µM). Do not append units.

Query :: Would you please give the reported IC50 of CC(C)[C@H](NC(=O)c1nn(Cc2ccc(F)cc2)c2ccccc12)C(N)=O [AB-FUBINACA] with CYP2C8 (Homo sapiens, UniProt P10632)?
Result :: 44.3

====

- TARGET OF ASSAY: CYP2C19 (Homo sapiens, UniProt P33261)
- Construct: native enzyme in ultrapooled human liver microsomes
- Sequence (P33261 whole entry): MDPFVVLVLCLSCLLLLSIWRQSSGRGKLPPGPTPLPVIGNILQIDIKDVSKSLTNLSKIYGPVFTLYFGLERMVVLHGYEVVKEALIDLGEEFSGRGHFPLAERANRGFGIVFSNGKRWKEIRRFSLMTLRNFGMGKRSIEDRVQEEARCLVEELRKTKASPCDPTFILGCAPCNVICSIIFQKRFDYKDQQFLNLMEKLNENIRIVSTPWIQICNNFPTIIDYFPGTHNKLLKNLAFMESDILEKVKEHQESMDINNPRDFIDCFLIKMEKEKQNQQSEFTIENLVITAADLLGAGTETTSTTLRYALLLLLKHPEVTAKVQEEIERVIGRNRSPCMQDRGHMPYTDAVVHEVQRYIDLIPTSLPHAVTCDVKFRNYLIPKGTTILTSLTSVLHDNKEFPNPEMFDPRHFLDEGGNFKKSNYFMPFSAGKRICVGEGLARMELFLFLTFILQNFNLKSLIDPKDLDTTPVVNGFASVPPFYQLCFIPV
- ASSAY EXPLANATION: LC-MS/MS, [S]-mephenytoin (substrate cocktail)
- Assay type: biochemical
QUANTITY KIND: pIC50
# pIC50: negative log10 of molar concentration; output just the value

Query :: Recall and state the measured pIC50 for CC(C)[C@H](NC(=O)c1nn(Cc2ccc(F)cc2)c2ccccc12)C(N)=O .
Result :: 4.71

====

- TARGET OF ASSAY: CYP2B6 (Homo sapiens, UniProt P20813)
- Construct: native enzyme in ultrapooled human liver microsomes
- Sequence (P20813 whole entry): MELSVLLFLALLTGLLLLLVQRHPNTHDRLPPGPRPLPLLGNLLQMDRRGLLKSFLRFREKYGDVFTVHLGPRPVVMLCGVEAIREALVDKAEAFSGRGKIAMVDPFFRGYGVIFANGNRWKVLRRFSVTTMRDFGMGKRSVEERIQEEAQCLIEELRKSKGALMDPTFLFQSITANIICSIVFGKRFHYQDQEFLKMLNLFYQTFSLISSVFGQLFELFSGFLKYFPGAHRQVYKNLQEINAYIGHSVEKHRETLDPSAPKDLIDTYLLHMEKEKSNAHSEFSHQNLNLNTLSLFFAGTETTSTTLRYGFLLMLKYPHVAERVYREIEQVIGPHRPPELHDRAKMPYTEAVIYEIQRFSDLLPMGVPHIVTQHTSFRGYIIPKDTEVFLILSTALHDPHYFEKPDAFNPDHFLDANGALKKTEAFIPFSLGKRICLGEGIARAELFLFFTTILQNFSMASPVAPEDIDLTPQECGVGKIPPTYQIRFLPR
- ASSAY EXPLANATION: LC-MS/MS, bupropion hydroxylation, Lineweaver-Burk/Dixon
- Type: biochemical
QUANTITY KIND: Ki (µM)
State the answer as a number, implicitly in µM.

Query :: Dear colleague, please send me the reported Ki for CC(C)[C@H](NC(=O)c1nn(Cc2ccc(F)cc2)c2ccccc12)C(N)=O [AB-FUBINACA] when you can.
Result :: 15
